# target or system: IgG
# assay notes: SPR, IgG immobilised on CM5 chip, compound as analyte; value from the legend of the grade (**** = Kd <100 nM)
pKd: −log10 of the molar value. Bridges are numbered along the chain shown (N, C = ends). [ ]: non-standard residue; d: D form. Pro(4S-NH2) = N[C@@H]1CN[C@H](C(=O)O)C1

binder	pKd
cyclo([Pro(4S-NH2)]ACSWHLGELVWCT[dP]) (disulfide 3-13; SMILES CC(C)C[C@@H]1NC(=O)[C@H](Cc2c[nH]cn2)NC(=O)[C@H](Cc2c[nH]c3ccccc23)NC(=O)[C@H](CO)NC(=O)[C@@H]2CSSC[C@H](NC(=O)[C@H](Cc3c[nH]c4ccccc34)NC(=O)[C@H](C(C)C)NC(=O)[C@H](CC(C)C)NC(=O)[C@H](CCC(=O)O)NC(=O)CNC1=O)C(=O)N[C@@H]([C@@H](C)O)C(=O)N1CCC[C@@H]1C(=O)N1C[C@@H](N)C[C@H]1C(=O)N[C@@H](C)C(=O)N2) [Intermediate 15]	> 7.00
